Molecular target: Zap1 (UniProt P47043)
Sequence: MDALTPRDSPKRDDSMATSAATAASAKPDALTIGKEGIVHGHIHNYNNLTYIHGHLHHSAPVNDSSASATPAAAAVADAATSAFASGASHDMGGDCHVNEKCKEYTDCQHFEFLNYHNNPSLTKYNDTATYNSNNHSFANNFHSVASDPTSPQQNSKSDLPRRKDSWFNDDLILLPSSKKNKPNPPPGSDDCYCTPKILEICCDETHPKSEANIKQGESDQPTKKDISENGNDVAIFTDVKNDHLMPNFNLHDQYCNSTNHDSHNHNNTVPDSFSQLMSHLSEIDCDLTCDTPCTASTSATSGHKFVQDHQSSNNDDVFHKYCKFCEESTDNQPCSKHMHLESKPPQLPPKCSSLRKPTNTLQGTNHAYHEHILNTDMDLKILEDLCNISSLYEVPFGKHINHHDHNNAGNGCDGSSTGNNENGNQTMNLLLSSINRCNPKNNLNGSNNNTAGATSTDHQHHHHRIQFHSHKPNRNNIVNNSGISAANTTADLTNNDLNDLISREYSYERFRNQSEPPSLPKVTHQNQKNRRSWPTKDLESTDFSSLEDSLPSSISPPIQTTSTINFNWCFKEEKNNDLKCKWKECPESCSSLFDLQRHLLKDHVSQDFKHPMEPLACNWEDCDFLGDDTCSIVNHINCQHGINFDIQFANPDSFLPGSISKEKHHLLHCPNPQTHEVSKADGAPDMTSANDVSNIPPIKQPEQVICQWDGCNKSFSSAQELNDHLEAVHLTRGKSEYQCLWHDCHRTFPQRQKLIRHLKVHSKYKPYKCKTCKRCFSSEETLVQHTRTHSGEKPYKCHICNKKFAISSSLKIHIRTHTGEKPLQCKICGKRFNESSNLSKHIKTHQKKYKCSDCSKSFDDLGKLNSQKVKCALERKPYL
Assay: PBM E-score (8-mer binding enrichment) (E-score (-0.5 to 0.5)); higher = stronger / more preferred TF binding
Conditions: protein concentration: 200 nM; construct: GST-full length
Over roughly 33,000 sequences, “E-score (-0.5 to 0.5)” has its median near -0.021; the highest 2% begin near 0.32. For the sample, the highest values were picked, then their nearest neighbours and some sequences at random.
This listing pairs sequences with measured PBM E-score.
measured-property: PBM E-score

{"columns": ["primary-sequence", "result-number"],
 "data": [
  ["AGCTGGCG", -0.283],
  ["CACCCTTC", 0.135],
  ["CGGTCCCA", -0.0137],
  ["CAGTATAA", 0.197],
  ["AACCCTTG", 0.444],
  ["GTCCCTTA", 0.0953],
  ["ACGGTGAA", -0.0282],
  ["CAACCTTC", 0.313],
  ["ATCCAGAA", 0.159],
  ["CCGGGTGA", 0.218],
  ["ACCCCTTC", 0.234]
]}

###

Biological target: Zap1 (UniProt P47043)
Sequence: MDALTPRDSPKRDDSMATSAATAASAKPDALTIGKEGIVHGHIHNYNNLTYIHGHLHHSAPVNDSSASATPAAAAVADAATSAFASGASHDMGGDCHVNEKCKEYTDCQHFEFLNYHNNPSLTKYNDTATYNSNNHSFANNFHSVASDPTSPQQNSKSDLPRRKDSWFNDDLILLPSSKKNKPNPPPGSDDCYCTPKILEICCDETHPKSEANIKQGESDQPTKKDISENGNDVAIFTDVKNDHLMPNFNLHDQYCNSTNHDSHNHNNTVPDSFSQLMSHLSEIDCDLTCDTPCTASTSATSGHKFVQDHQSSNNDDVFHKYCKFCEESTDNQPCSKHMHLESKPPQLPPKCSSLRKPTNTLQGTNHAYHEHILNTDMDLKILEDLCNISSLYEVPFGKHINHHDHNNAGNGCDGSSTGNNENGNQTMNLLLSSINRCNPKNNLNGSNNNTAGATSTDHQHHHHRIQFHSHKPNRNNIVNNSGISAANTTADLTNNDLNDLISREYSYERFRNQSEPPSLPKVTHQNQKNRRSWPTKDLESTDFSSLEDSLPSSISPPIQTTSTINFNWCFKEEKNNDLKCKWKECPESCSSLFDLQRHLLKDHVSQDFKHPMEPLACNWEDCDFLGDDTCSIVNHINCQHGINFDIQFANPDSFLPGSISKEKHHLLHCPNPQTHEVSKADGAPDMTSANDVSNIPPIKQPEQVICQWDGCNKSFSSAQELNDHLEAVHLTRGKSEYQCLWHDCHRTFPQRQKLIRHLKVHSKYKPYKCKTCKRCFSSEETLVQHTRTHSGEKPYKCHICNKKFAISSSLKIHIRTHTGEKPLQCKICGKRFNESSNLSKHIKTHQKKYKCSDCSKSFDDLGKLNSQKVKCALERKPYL
Test: PBM E-score (8-mer binding enrichment) (E-score (-0.5 to 0.5)); higher = stronger / more preferred TF binding
Conditions: protein concentration: 200 nM; construct: GST-full length
Over roughly 33,000 sequences, “E-score (-0.5 to 0.5)” has its median near -0.021; the highest 2% begin near 0.32. Only a selection was taken, and the highest values are over-represented in it overall.

{"columns": ["primary-sequence", "target-entity", "PBM E-score"],
 "data": [
  ["ATAGGTGA", "Zap1 (UniProt P47043)", 0.0727],
  ["CGCTCTCC", "Zap1 (UniProt P47043)", -0.119],
  ["ATCCAACA", "Zap1 (UniProt P47043)", 0.0629],
  ["GCTAATCC", "Zap1 (UniProt P47043)", -0.0663],
  ["ACCATTAA", "Zap1 (UniProt P47043)", 0.348],
  ["GCGGTAGC", "Zap1 (UniProt P47043)", 0.0107],
  ["ACGGTACG", "Zap1 (UniProt P47043)", 0.0714],
  ["ATAGGTAG", "Zap1 (UniProt P47043)", 0.172],
  ["GTGGTTAA", "Zap1 (UniProt P47043)", 0.406],
  ["CACTGGCG", "Zap1 (UniProt P47043)", -0.0169],
  ["CCGGTACC", "Zap1 (UniProt P47043)", 0.414],
  ["GTGGTTTA", "Zap1 (UniProt P47043)", 0.213],
  ["CAGCTGGA", "Zap1 (UniProt P47043)", -0.131],
  ["ATAGGTAA", "Zap1 (UniProt P47043)", 0.323],
  ["GCCATAAC", "Zap1 (UniProt P47043)", 0.12],
  ["GCGGTACA", "Zap1 (UniProt P47043)", 0.13],
  ["ACCATAAG", "Zap1 (UniProt P47043)", 0.0852],
  ["AACTGCCG", "Zap1 (UniProt P47043)", -0.0311],
  ["CTAGGTAA", "Zap1 (UniProt P47043)", 0.0356],
  ["CCCATAAG", "Zap1 (UniProt P47043)", 0.236],
  ["CTAGGTAC", "Zap1 (UniProt P47043)", 0.115],
  ["TATGTGGA", "Zap1 (UniProt P47043)", -0.0214]
]}
